Source: PubChem BioAssay (Tox21)

Target: Acetylcholinesterase (Homo sapiens) (UniProt P22303)
Sequence (P22303 whole entry, looked up): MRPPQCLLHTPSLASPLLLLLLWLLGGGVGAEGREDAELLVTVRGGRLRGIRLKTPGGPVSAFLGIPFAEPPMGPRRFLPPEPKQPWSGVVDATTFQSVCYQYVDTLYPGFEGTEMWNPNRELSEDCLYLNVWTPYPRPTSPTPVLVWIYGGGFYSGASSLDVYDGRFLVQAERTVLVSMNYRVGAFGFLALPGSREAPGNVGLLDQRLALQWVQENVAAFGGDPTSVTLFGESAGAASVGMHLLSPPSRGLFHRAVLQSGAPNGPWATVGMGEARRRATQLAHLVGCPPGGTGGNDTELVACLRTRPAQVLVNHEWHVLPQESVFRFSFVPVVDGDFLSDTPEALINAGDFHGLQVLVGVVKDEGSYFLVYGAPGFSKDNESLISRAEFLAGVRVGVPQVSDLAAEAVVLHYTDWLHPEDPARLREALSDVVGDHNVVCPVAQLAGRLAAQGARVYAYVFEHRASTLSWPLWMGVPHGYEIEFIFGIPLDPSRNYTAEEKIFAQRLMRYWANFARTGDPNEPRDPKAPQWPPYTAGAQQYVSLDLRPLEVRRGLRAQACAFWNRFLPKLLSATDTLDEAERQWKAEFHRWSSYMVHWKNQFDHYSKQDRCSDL
Test: Acetylcholinesterase (AChE) small molecule antagonists: colormetric cell-based qHTS assay (AID 1347395); also: nearly all actives have a fitted effect of over 30% in size
Details: SH-SY5Y cells AChE activity, colorimetric (Ellman); series mostly up to 115 µM
From the text: National Center for Advancing Translational Sciences [NCATS] Division of Preclinical Innovation [DPI] U.S. Environmental Protection Agency [EPA] National Institutes of Environmental Health Sciences [NIEHS] National Toxicology Program [NTP] U.S. Food and Drug Administration [FDA] Acetylcholinesterase (AChE) is the primary cholinesterase in the body that hydrolyzes a key neurotransmitter, acetylcholine. Inhibition of AChE activity can lead to neurotoxicity. […]
Results filed as inconclusive are left out. Active and inactive are the calls of the source. Calls follow the shape of the full dose curve.
RECORDED ENDPOINT: activity, negative = inhibition

>>> obs_value("Cc1cc2c(OCC(CNC(C)(C)C)OC(=O)c3ccccc3)cccc2[nH]1 (stereo not drawn)")
"inactive"
>>> obs_value("Nc1cc(Cl)c(-c2cc(Cl)c(N)cc2Cl)cc1Cl")
"inactive"
>>> obs_value("CCCCCCCCCCCCCCCO")
"inactive"
